Sourced from paper PMC9253517

- SYSTEM: SARS-CoV-2 Wuhan-Hu-1 RBD (SARS-CoV-2, Wuhan-Hu-1 (GenBank …, UniProt P0DTC2))
- TEST METHOD NOTES: cell-based or functional assay
RESULT TYPE: neutralisation IC50, Wuhan-Hu-1 pseudovirus (µg/mL)
Please respond with the number in µg/mL and leave the unit unwritten.

Endpoint output: neutralisation IC50, Wuhan-Hu-1 pseudovirus of JR099 (antibody, V domains shown) VH: EVQLVESGGGLVQPGGSLRLSCAASGFTFSDYDMHWVRQVRGKGLEWLSIIGTAGDTYYPDSVKGRFTISRENAKNSLYLQMNSLRVGDTGVYYCARDRASTSGTDGMDVWGQGTTVTVSS VL: DIQLTQSPSSLSASVGDRVTITCRASQSISRYLNWYQQRPGKAPKLLIYAAFTLESGVPSRFSGSGSGTDFTLTISSLQAEDFATYHCQQSYSTSALTFGGGTKVEIK . Value?
0.0463
